Would you kindly list growth inhibition for each of these compounds?
experiment: NCI Yeast Anticancer Drug Screen. Data for the mlh1 strain (AID 171);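 also: 0% = growth of vehicle-treated control cultures of the same strain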; settings: S. cerevisiae mlh1 strain growth inhibition; at 1.2 µM; stronger effect = higher value
The panel holds about 79,000 compounds, 15% with a hit somewhere; the sample as a whole holds those more often.
Answers are plain numbers, in %.

Some compounds with recorded growth inhibition:
CC(C)(C(=O)NN)c1ccccc1	3
Cc1cnc(/C=N\NC(N)=S)c2cccc(N)c12	-75
COc1cc(C(C)(C)C)cc(OC)c1C(O)(c1c(OC)cc(C(C)(C)C)cc1OC)c1c(OC)cc(C(C)(C)C)cc1OC	-19
O=C1OC(/C=C/c2ccccc2)Sc2ccccc21 (stereo not drawn)	1
O=C(CCCN1CCC2(CC1)OC(=O)N(c1ccccc1)C2=O)c1ccccc1	35
O=[N+]([O-])C(=C(NCc1ccccc1)NCc1ccccc1)C(Cl)=C(Cl)Cl	4
CCCCCCCCCCCCCCCCOCC(Cl)COP(=O)(O)OP(=O)(O)OCC1OC(n2cnc3c(N)ncnc32)C(O)C1O (stereo not drawn)	10
Cc1[nH]nc(C(F)(F)F)c1N=NN(C)C	4
O=C(CCC(=O)c1ccc(O)cc1)Oc1ccc(O)cc1	3
Nc1ccc2ncc(Nc3ccc(Cl)c(Cl)c3)nc2c1	-4

// batch mode: one growth inhibition value per listed entry
1. O=S(=O)(O)c1ccc2c(N=Nc3c(O)ccc4ccccc34)cccc2c1
2. CC1C=CN(N(C)C)C2=C1C(=O)c1cnccc1C2=O (stereo not drawn)

Return:
[4, -48]

###

assay: NCI Yeast Anticancer Drug Screen. Data for the wt1 strain (AID 149);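 also: 0% = growth of vehicle-treated wt1 cultures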; details: S. cerevisiae wt1 strain (SPY 50644) growth inhibition; at 11.0 µM; stronger effect = higher value
The panel holds about 79,000 compounds, 15% with a hit somewhere; the sample as a whole holds those more often.
Quantity: growth inhibition (%)
Numbers only, in %.

Example molecules with recorded growth inhibition:
CC(C)c1ccc(C2NC(=S)NC3=C2c2ccccc2C3=O)cc1 (stereo not given)	18
Cc1ccc(C(C)C)c(C(=C2C=CC(=[N+](C)C)C=C2)c2c(C(C)C)ccc(C)c2O)c1O	98
O=C(O)[C@H]1[C@@H](C2CCCCC2)O[C@@H](C2CCCCC2)O[C@H]1C(F)(F)F	0

Lab note: each molecule below needs its growth inhibition filled in.
1. CCCCOc1ccc(Nc2c3ccccc3nc3ccccc23)cc1
2. N=C(N)c1ccc(N=Nc2c(O)ccc3c2[nH]c2ccccc23)cc1
3. CCOC(=O)/C=C1\CCCn2c1ncc(C(=O)OCC)c2=O
4. CC[N+]1(C)CCC(O)(/C=C/c2ccc(Cl)c(Cl)c2)C(C(=O)/C=C/c2ccc(Cl)c(Cl)c2)C1 (stereo not given)
5. N#C/C(=C1C=C/C(=N\O)C(Cl)=C\1)c1ccccc1
6. C#CC1=CC(=O)C(OC)=CC1=O
7. COc1ccc(C(=O)NCCN(C)C)c2nc3ccccc3cc12

Return:
1: 69; 2: 69; 3: 6; 4: 99; 5: 2; 6: 23; 7: -2

###

test: NCI Yeast Anticancer Drug Screen. Data for the mec2-1 strain (AID 157); settings: S. cerevisiae mec2-1 strain, at 50.0 µM (retest, dose inferred, filed as 5.0)
Compounds without any hit were thinned out: in the full panel of roughly 79,000, 15% have a hit. Activity calls are given as the source filed them. Cut-off read from the data, not from the text of the source: active = growth inhibition above about 70%; inactive = the rest.
Your response should consist of one outcome taken from true for active, false for inactive

O=[N+]([O-])c1ccc2nnnn2c1	false

Query compound follows.
Enquiry: Just curious, what result did COc1cc(NCCCCCNC(C)C)c2ncccc2c1Cl get here?
Return: false
